# Test system: SNB-75 CNS
# Experiment: NCI tumour cell line growth inhibition, 48 h
Provide the recorded TGI for the entries that follow.

{"columns": ["Molecule", "TGI"],
 "data": [
  ["CCn1nc(C)c2c1C(=O)NC(C)C(=O)N2 (stereo not drawn)", "> 100 µM"],
  ["CC1(C)CCC[C@@]2(C)C1C[C@H](O)[C@@]1(C)O[C@@](C)([C@H](O)CO)CCC21 (stereo partly drawn)", "58.9 µM"],
  ["CC1(C)OCC2(CO1)CSCCCSCC1(COC(C)(C)OC1)CSCCCSC2", "> 100 µM"],
  ["O=C1c2cccc3cc([N+](=O)[O-])cc(c23)C(=O)N1NC1=NCCN1", "> 100 µM"],
  ["NC(N)=NS(=O)(=O)c1ccc(Nc2c3ccccc3nc3c(C(=O)N4CCN(CCO)CC4)cccc23)cc1", "> 100 µM"],
  ["CC1(c2cccc3c2C2(O)C=CC4(CCC32)OCCO4)OCCO1 (stereo not drawn)", "> 100 µM"],
  ["C=C[C@@]1(C)CCC2(O)C(CCC3C2(C)CCC[C@@]3(C)COC(=O)CC(=O)OC)C1 (stereo partly drawn)", "48.4 µM"],
  ["O=C(COc1ccc(/C=C2\\Oc3ccccc3C2=O)cc1)Nc1nccs1", "72.6 µM"],
  ["Cc1nc(Cl)c(Cl)c(Cl)n1", "2.7 µM"],
  ["COc1ccc(Cl)cc1Nc1nc(C(F)(F)F)ccc1C(=O)N/N=C/c1ccc([N+](=O)[O-])cc1", "12.9 µM"]
]}

Batch of 3 molecules: report TGI for each.
1. O=C(c1ccco1)C1CC(c2ccc3ccccc3c2O)=NN1 (stereo not drawn)
2. Cc1ccc(S(=O)(=O)OC[C@]23CCC(C)(C)C[C@H]2C2=CC[C@@H]4[C@@]5(C)CCCNC(C)(C)[C@@H]5CC[C@@]4(C)[C@]2(C)CC3)cc1
3. CCC[C@H](O)[C@@H](CNc1cc(NC(C)=O)nc(NC(C)=O)n1)N(Cc1ccccc1)Cc1ccccc1

Outgoing:
1. > 100 µM
2. 2.94 µM
3. 34.8 µM

Batch of 2 molecules: report TGI for each.
1. O=C1c2cccc3cccc(c23)C(=O)N1CCCNCCCCNCCCN1C(=O)c2cccc3cccc(c23)C1=O
2. COc1cc([N+](=O)[O-])c(S(=O)(=O)O)cc1NS(=O)(=O)c1ccc(C)cc1

Outgoing:
["1.01 µM", "> 100 µM"]

Batch of 4 molecules: report TGI for each.
1. COc1ccc(C2=Nc3ccccc3SC(C)C2)cc1 (stereo not drawn)
2. CC(C)(C)N/N=C(\Cc1occc(=O)c1O)C(=O)Nc1ccc([N+](=O)[O-])cc1[N+](=O)[O-]
3. O=C1CSC(/C(=C/c2ccccc2)c2nc3ccccc3[nH]2)=N1
4. O=S(=O)(C(=Ic1ccccc1)S(=O)(=O)C(F)(F)C(F)(F)C(F)(F)C(F)(F)F)C(F)(F)C(F)(F)C(F)(F)C(F)(F)F

Outgoing:
1: > 100 µM; 2: > 100 µM; 3: 50.7 µM; 4: 28.5 µM

----------
# Test system: SF-295 CNS
# Experiment: NCI tumour cell line growth inhibition, 48 h
Measured metric: TGI

The cases that follow already have their TGI on record.
{"columns": ["Compound", "Target or system", "TGI"],
 "data": [
  ["Cc1cc2cccnc2c2ncccc12", "SF-295 CNS", "4.57 µM"],
  ["O=C(/C=C1\\C(=O)N(Cc2ccc([N+](=O)[O-])cc2)c2ccccc21)c1ccc(OCCN2CCCCC2)cc1", "SF-295 CNS", "4.12 µM"],
  ["NC(=O)c1cc(-c2ccncc2)cc(-c2ccccc2)c1N", "SF-295 CNS", "> 25 µM"],
  ["CN(Cc1cnc(N)nc1N)c1ccc(C(=O)O)cc1", "SF-295 CNS", "> 100 µM"]
]}

Batch of 5 compounds: report TGI for each.
1. O=C(N/C(=C\c1ccccc1[N+](=O)[O-])c1nc2ccccc2[nH]1)c1ccccc1
2. O=[N+]([O-])c1cc([N+](=O)[O-])c(Cl)c(Cl)c1Cl
3. Nc1ncnc2c1ncn2C1OC(CSC(F)(F)F)C(O)C1O (configuration not stated)
4. CCOC(=O)N1CCN(c2c(C)nc(C)[nH]c2=O)CC1
5. [N-]=[N+]=Nc1ccc(NCCCCCC(=O)ON2C(=O)CCC2=O)c([N+](=O)[O-])c1

Outgoing:
["> 100 µM", "23.1 µM", "> 100 µM", "> 100 µM", "> 100 µM"]

Batch of 7 compounds: report TGI for each.
1. COc1cc(O)c2c(=O)c(OC)c(-c3ccc4c(c3)OCO4)oc2c1
2. O=C(O)CN=C(C(=NCC(=O)O)c1ccccc1)c1ccccc1
3. C=CCC1C(=O)C(C(=O)OC)N2CCc3c([nH]c4ccccc34)C12 (configuration not stated)
4. COc1ccc(NS(=O)c2ccc(-c3ccccc3)cc2)cc1 (configuration not stated)
5. CCOC(=O)c1cc(/C=C/C(C)=C/C(=O)OC)oc1-c1ccccc1
6. CC[C@@]1(OC(=O)CN)C(=O)OCc2c1cc1n(c2=O)Cc2cc3cc4c(cc3nc2-1)OCO4
7. CCCCSN1C(=O)c2ccccc2C1=S

Outgoing:
1. > 92.2 µM
2. > 100 µM
3. > 100 µM
4. > 100 µM
5. > 100 µM
6. < 0.01 µM
7. > 100 µM

Batch of 2 compounds: report TGI for each.
1. O=C(COc1ccc(/C=C2\Oc3ccccc3C2=O)cc1)Nc1nccs1
2. CC1(c2cccc3c2C2(O)C=CC4(CCC32)OCCO4)OCCO1 (configuration not stated)

Outgoing:
1. > 100 µM
2. > 100 µM

Batch of 7 compounds: report TGI for each.
1. Cc1csc(/C=N/NC(=O)c2nnn(-c3ccnc4c(C(F)(F)F)cccc34)c2C)c1
2. COc1ccc(-c2nn(-c3ccc(NC(=O)c4ccc(Cl)c(C(F)(F)F)c4)cc3)cc2-c2ccncc2)cc1Cl
3. CCCCN(CCCC)c1ccc(C(=N)c2ccc(N(C)C)cc2)cc1
4. Cc1nc(Cl)c(Cl)c(Cl)n1
5. C=CCn1c(=O)c2cnc(Nc3ccc(N4CCN(C)CC4)cc3)nc2n1-c1ccc2c(n1)[C@@](O)(CC)CC2
6. Oc1[nH]c2ccccc2c1N=NC(=S)N1CCCCC1
7. N#CCCN(CCC#N)C(=O)c1cccc(C(=O)N(CCC#N)CCC#N)c1

Outgoing:
> 100 µM
0.79 µM
1.34 µM
3.58 µM
18.7 µM
3.36 µM
> 100 µM

Source listed as PubChem BioAssay (NCI).
